experimental target: PI3Kδ (p110δ/p85α) (Homo sapiens (Human), UniProt O00329)
Sequence (O00329 whole entry): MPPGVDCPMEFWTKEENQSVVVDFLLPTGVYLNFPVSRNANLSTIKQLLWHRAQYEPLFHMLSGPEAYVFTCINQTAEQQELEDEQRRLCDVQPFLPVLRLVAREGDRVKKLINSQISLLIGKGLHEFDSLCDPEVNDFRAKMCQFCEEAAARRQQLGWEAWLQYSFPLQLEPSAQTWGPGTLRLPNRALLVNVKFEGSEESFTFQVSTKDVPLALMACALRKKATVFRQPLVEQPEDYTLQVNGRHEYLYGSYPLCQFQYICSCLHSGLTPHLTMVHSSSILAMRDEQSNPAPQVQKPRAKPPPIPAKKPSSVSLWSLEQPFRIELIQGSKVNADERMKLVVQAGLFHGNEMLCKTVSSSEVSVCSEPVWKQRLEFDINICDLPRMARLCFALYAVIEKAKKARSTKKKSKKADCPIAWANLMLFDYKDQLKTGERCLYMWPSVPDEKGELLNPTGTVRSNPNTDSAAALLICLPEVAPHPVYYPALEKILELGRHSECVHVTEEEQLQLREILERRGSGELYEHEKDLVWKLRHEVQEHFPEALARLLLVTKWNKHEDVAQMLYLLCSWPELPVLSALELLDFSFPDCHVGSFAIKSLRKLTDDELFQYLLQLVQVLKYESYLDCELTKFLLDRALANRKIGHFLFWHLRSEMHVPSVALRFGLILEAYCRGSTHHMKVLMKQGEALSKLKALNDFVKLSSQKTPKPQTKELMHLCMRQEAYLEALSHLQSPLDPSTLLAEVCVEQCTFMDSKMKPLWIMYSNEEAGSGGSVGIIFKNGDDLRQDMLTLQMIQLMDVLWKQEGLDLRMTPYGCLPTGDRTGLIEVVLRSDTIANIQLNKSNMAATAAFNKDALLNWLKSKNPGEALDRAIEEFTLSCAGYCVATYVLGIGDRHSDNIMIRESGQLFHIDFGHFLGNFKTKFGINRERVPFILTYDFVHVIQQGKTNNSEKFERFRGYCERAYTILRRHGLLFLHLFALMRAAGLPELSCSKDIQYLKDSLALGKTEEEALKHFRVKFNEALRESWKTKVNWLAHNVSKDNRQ
Sequence (P27986 whole entry partner): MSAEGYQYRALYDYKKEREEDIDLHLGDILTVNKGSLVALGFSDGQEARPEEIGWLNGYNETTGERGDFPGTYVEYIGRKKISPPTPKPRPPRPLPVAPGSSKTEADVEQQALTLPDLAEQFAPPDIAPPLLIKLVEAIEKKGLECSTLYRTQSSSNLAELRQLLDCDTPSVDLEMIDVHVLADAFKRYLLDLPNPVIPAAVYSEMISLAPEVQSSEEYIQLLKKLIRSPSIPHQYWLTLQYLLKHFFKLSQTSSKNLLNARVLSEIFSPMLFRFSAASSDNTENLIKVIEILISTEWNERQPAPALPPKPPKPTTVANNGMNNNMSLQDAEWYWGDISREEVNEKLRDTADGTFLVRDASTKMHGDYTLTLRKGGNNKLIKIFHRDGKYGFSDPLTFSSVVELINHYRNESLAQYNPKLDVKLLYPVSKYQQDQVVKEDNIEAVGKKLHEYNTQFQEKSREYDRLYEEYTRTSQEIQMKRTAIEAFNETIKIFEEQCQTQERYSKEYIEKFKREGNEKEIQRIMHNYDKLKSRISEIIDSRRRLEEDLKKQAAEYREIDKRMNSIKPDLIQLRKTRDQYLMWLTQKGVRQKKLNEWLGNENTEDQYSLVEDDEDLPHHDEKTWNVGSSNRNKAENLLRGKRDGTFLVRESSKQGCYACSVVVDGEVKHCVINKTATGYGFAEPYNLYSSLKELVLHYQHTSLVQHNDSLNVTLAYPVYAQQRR
test method notes: PI3Kδ scintillation proximity assay
setup conditions: 20 μM ATP; read-out: PI3Kδ SPA IC50
pIC50: −log10 of the molar value.
So I've got a bunch of molecules here, and I need their pIC50 values.

*Q* Name the value of pIC50 reported for CCOc1c(C(C)n2nc(C)c3c(N)ncnc32)cc(Cl)c(F)c1C1CNC(=O)O1 (single isomer, unassigned) [Example 2B] when tested on PI3Kδ (p110δ/p85α) (Homo sapiens (Human), UniProt O00329).
*A* 6.70 to 7.30

*Q* Name the value of pIC50 reported for CCOc1c(C(C)n2nc(C)c3c(N)ncnc32)cc(Cl)c(F)c1C1CNC(=O)O1 (single isomer, unassigned) [Example 2D] when tested on PI3Kδ (p110δ/p85α) (Homo sapiens (Human), UniProt O00329).
*A* < 6.30

*Q* Name the value of pIC50 reported for CCOc1c(C(C)n2nc(C)c3c(N)ncnc32)cc(Cl)c(F)c1C1CNC(=O)O1 (single isomer, unassigned) [Example 2A] when tested on PI3Kδ (p110δ/p85α) (Homo sapiens (Human), UniProt O00329).
*A* 6.70 to 7.30

*Q* Name the value of pIC50 reported for CCOc1c(C(C)n2nc(C)c3c(N)ncnc32)cc(Cl)c(F)c1C1CNC(=O)C1 (single isomer, unassigned) [Example 1A] when tested on PI3Kδ (p110δ/p85α) (Homo sapiens (Human), UniProt O00329).
*A* 6.70 to 7.30

*Q* Name the value of pIC50 reported for CCOc1c(C(C)n2nc(C)c3c(N)ncnc32)cc(Cl)c(F)c1C1CNC(=O)C1 (single isomer, unassigned) [Example 1D] when tested on PI3Kδ (p110δ/p85α) (Homo sapiens (Human), UniProt O00329).
*A* 6.70 to 7.30
